Test system: NCI/ADR-RES ovarian
assay_method_text: NCI-60 one-dose screen, 48 h (100 = growth as untreated, 0 = no growth, -100 = all killed)
condition_notes: 10 µM unless noted
Method: Growth inhibition of the NCI/ADR-RES human […] tumor cell line is measured as a screen for anti-cancer activity. Cells are grown in 96 well plates and exposed to the test compound for 48 hours. Compounds are tested at a single concentration, which is 10^-5 M for most compounds. The reported endpoint is percent growth (GI% or GIPRCNT), where numbers from 0 - 100% represent growth inhibition, and numbers from -100% - 0 represent cell death. For example, a value of 40 represents 60% growth inhibition. […]
The panel holds about 83,000 compounds, 20% with a hit somewhere; the sample as a whole holds those more often.

{"molecule": "COc1ccc(-c2cc(-c3nnc(SCC(=O)Nc4ccc(/C(C)=N\\O)cc4)n3-c3ccccc3)c3cc(OC)ccc3n2)cc1", "growth [%]": 71.3}
{"molecule": "CCSc1ccc(C2C(Br)C(=O)N2c2cc(OC)c(OC)c(OC)c2)cc1 (stereo not given)", "growth [%]": 14}
{"molecule": "COC(=O)[C@]1(C)CCC[C@]2(C)[C@H]3C[C@H]4C(C(C)C)=C[C@]3(CC[C@H]21)[C@@H]1C(=O)N(CCC#N)C(=O)[C@@H]14", "growth [%]": 84.4}
{"molecule": "Nc1c(C(=O)Nc2ccccn2)sc2nc3c(cc12)CCCCCC3", "growth [%]": 18.8}
{"molecule": "O=C(CN1N=C(c2ccc(F)cc2)CCC1=O)Nc1nccs1", "growth [%]": 109}
